ASSAY TARGET: T. cruzi TryR (Trypanosoma cruzi)
VALUE TYPE: pKi
Conceptually, pKi converts a concentration in mol/L into minus its log10.

Q) pKi of CC(C)CCN[C@@H]1C[C@@H](c2ccc(Cl)c(Cl)c2)c2ccccc21 (relative stereo) [8ii] on T. cruzi TryR (Trypanosoma cruzi)?
A) 5.46

----------
Here's a batch of compounds along with measured pIC50 for T. cruzi TryR (Trypanosoma cruzi, UniProt P28593).
Conceptually, pIC50 converts a concentration in mol/L into minus its log10.

Q) pIC50 of COc1ccc2c(c1)[C@H](NCCC(C)C)C[C@H]2c1ccc(Cl)cc1 (relative stereo) [8xviii] on T. cruzi TryR (Trypanosoma cruzi, UniProt P28593)?
A) 4.80

Q) pIC50 of Clc1ccc([C@@H]2C[C@@H](N3CCOCC3)c3ccccc32)cc1Cl (relative stereo) [8vi] on T. cruzi TryR (Trypanosoma cruzi, UniProt P28593)?
A) 3.76

Q) pIC50 of CN(C)c1ccc(CN[C@@H]2C[C@@H](c3ccc(Cl)c(Cl)c3)c3ccccc32)cc1 (relative stereo) [8xii] on T. cruzi TryR (Trypanosoma cruzi, UniProt P28593)?
A) 5.13

----------
ASSAY TARGET: T. cruzi TryR (Trypanosoma cruzi, UniProt P28593)
Sequence (P28593 whole entry): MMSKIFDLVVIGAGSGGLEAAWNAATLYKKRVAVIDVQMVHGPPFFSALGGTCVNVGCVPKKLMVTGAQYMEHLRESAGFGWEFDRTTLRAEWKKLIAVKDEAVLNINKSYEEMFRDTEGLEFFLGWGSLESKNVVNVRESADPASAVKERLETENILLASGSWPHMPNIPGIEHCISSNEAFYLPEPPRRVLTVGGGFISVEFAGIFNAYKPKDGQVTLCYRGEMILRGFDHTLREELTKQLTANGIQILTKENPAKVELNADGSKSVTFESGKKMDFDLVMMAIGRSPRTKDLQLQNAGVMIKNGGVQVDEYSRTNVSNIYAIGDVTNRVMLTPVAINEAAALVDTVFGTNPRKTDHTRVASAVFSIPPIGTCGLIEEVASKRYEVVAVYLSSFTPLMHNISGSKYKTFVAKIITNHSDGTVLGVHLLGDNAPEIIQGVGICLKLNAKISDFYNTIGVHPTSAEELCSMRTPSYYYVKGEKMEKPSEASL
METHOD SUMMARY: DTNB-coupled TryR microplate assay, […] nm
Assay type: biochemical
Catalogue of pIC50 values
Conceptually, pIC50 converts a concentration in mol/L into minus its log10.

See these solved cases before continuing.
1) COc1cccc(C2CC(NCCC(C)C)c3cc(OC)ccc32)c1 (centres unmarked) [8xx] ... 3.90
2) Clc1ccc(CN[C@@H]2C[C@@H](c3ccc(Cl)c(Cl)c3)c3ccccc32)cc1Cl (relative stereo) [8ix] ... 4.34
3) COc1ccc2c(c1)[C@H](NCCC(C)C)C[C@H]2c1ccc(Cl)c(Cl)c1 (relative stereo) [8xvi] ... 5.65
4) COc1ccc2c(c1)[C@H](NCCC(C)C)C[C@H]2c1ccc(Br)c(Br)c1 (relative stereo) [8xvii] ... 5.50
5) Cc1ccc(CN[C@@H]2C[C@@H](c3ccc(Cl)c(Cl)c3)c3ccccc32)cc1 (relative stereo) [8x] ... 4.89
6) CC(C)CCN[C@@H]1C[C@@H](c2ccc(Cl)c(Cl)c2)c2ccccc21 (relative stereo) [8ii] ... 5.39

Q) // lookup pIC50 for Clc1ccc(C2CC(NCc3ccccc3)c3ccccc32)cc1Cl (centres unmarked) [8vii]
A) 5.09

----------
ASSAY TARGET: T. cruzi TryR (Trypanosoma cruzi)
Catalogue of pIC50 values
Conceptually, pIC50 converts a concentration in mol/L into minus its log10.

1. COc1ccc2c(c1)[C@H](NCCC(C)C)C[C@H]2c1ccc(C)cc1 (relative stereo) [8xix] ... 4.48
2. COc1ccc2c(c1)[C@@H](NCc1ccccc1)C[C@@H]2c1ccc(Cl)c(Cl)c1 (relative stereo) [8xxi] ... 5.51

Now for a further molecule.
Q) pIC50 of COc1ccc(CN[C@@H]2C[C@@H](c3ccc(Cl)c(Cl)c3)c3ccccc32)cc1 (relative stereo) [8xi] on T. cruzi TryR (Trypanosoma cruzi)?
A) 5.38
